# targetOrSystem: PSMA receptor on PC3pip cells (Homo sapiens)
# Sequence (Q04609 whole entry): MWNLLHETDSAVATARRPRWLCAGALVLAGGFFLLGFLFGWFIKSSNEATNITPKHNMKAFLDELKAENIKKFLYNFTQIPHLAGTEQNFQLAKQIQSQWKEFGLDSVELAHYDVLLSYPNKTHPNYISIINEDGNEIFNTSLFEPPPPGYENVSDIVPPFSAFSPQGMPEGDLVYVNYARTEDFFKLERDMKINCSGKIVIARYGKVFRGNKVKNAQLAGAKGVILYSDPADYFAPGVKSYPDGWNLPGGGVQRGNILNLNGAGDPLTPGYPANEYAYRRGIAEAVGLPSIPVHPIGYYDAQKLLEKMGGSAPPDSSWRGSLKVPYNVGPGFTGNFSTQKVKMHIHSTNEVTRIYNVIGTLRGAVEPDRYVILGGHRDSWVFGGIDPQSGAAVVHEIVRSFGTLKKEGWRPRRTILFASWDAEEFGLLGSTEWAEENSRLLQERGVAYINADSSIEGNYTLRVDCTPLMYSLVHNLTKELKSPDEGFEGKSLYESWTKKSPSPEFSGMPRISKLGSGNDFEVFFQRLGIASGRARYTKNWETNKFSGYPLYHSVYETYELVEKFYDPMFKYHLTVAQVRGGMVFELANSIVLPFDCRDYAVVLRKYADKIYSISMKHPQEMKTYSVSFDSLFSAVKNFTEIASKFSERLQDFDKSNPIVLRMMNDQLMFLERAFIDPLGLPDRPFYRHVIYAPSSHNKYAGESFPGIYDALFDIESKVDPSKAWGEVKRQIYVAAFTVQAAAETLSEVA
property: IC50 (nM)
Number in nM, nothing else.

Dear colleague, I am looking for the recorded IC50 of the following compound: NCCCC[C@H](NC(=O)N[C@@H](CCC(=O)O)C(=O)O)C(=O)O [Cys-CO-Glu]
9.93

Origin of values: paper PMC4472004
